Target: Bdf3 bromodomain (Bdf3^32-150) (Trypanosoma brucei)
Construct: bromodomain, residues 32-150, amplified from genomic DNA, pET28a with N-terminal PreScission-cleavable His6 tag, E. coli; strain-construction section prints a conflicting locus Tb427.01.1830
Sequence (Q383S2 32-150): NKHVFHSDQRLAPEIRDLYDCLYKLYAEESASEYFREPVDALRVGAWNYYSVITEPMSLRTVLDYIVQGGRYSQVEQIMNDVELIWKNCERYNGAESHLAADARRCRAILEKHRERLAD
Test: isothermal titration calorimetry
EXPERIMENTAL ENDPOINT: Kd (µM)
Give the value, in units of µM, as a plain number.

Briefly, Kd measured for "COc1cc2c(cc1-c1c(C)noc1C)ncc1[nH]c(=O)n([C@H](C)c3ccccn3)c12" : 175

====

Target: Bdf2 bromodomain (Bdf2^9-123) (Trypanosoma brucei, UniProt Q38AM1)
Construct: bromodomain, residues 9-123, amplified from genomic DNA, pET28a with N-terminal PreScission-cleavable His6 tag, E. coli; crystal model residues 9-114
Sequence (Q38AM1 9-123): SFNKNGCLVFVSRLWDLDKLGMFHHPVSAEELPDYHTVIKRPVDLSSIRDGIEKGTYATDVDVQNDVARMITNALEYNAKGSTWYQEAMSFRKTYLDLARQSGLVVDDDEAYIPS
Test: isothermal titration calorimetry
EXPERIMENTAL ENDPOINT: Kd (µM)
Give the value in µM but do not write µM after it.

Kd measured on "COc1cc2c(cc1-c1c(C)noc1C)ncc1[nH]c(=O)n([C@H](C)c3ccccn3)c12" = 225
